Test: Reverse-phase thin-layer chromatographic lipophilicity (RF, RM0)
Format: physicochemical
Details: Acetone/Water/Hydrochloric acid (conc.); intercept of RM = RM0 + bC
Form field: RM0 (one value per entry).

[[record]]
molecule = "Clc1ccc2c(NCCCCCCCCNCC34CC5CC(CC(C5)C3)C4)ccnc2c1"
result = 2.706

[[record]]
molecule = "Clc1ccc2c(NCCCCCCNCC34CC5CC(CC(C5)C3)C4)ccnc2c1"
result = 2.036

[[record]]
molecule = "Clc1ccc2c(Nc3cccc4c(NCCC56CC7CC(CC(C7)C5)C6)cccc34)ccnc2c1"
result = 1.657


Name the recorded RM0 of the molecule listed here: "Clc1ccc2c(NCCCCNCC34CC5CC(CC(C5)C3)C4)ccnc2c1"
1.838

Name the recorded RM0 of the molecule listed here: "Clc1ccc2c(NCCN(CCC34CC5CC(CC(C5)C3)C4)CCC34CC5CC(CC(C5)C3)C4)ccnc2c1"
3.559

Name the recorded RM0 of the molecule listed here: "FC(F)(F)c1ccc2c(NCCNCC34CC5CC(CC(C5)C3)C4)ccnc2c1"
2.0143

Name the recorded RM0 of the molecule listed here: CC(CCNCCC12CC3CC(CC(C3)C1)C2)Nc1ccnc2cc(Cl)ccc12 (stereo not drawn)
2.236

Name the recorded RM0 of the molecule listed here: CC(CCNCC12CC3CC(CC(C3)C1)C2)Nc1ccnc2cc(C(F)(F)F)ccc12 (stereo not drawn)
2.073

Name the recorded RM0 of the molecule listed here: "Clc1ccc2c(NCCCNCC34CC5CC(CC(C5)C3)C4)ccnc2c1"
1.795

Name the recorded RM0 of the molecule listed here: "Clc1ccc2c(N3CCN(CCC45CC6CC(CC(C6)C4)C5)CC3)ccnc2c1"
1.611

Name the recorded RM0 of the molecule listed here: "Clc1ccc2c(NCCCN3CCN(CCCNCCC45CC6CC(CC(C6)C4)C5)CC3)ccnc2c1"
1.784

Name the recorded RM0 of the molecule listed here: "Clc1ccc2c(N3CCN(CC45CC6CC(CC(C6)C4)C5)CC3)ccnc2c1"
1.432

Name the recorded RM0 of the molecule listed here: CC(CCNCC12CC3CC(CC(C3)C1)C2)Nc1ccnc2ccccc12 (stereo not drawn)
1.742

Name the recorded RM0 of the molecule listed here: "Clc1ccc2c(Nc3cccc(NCC45CC6CC(CC(C6)C4)C5)c3)ccnc2c1"
2.074

Name the recorded RM0 of the molecule listed here: "Clc1ccc2c(NCCNCC34CC5CC(CC(C5)C3)C4)ccnc2c1"
1.738

---

Form field: Ki (one value per entry).
Target: recombinant human AChE (Homo sapiens)
Construct: gift of Dr Florian Nachon (Armed Forces Biomedical Research Institute, Brétigny-sur-Orge, France)
Sequence (P22303 32-614): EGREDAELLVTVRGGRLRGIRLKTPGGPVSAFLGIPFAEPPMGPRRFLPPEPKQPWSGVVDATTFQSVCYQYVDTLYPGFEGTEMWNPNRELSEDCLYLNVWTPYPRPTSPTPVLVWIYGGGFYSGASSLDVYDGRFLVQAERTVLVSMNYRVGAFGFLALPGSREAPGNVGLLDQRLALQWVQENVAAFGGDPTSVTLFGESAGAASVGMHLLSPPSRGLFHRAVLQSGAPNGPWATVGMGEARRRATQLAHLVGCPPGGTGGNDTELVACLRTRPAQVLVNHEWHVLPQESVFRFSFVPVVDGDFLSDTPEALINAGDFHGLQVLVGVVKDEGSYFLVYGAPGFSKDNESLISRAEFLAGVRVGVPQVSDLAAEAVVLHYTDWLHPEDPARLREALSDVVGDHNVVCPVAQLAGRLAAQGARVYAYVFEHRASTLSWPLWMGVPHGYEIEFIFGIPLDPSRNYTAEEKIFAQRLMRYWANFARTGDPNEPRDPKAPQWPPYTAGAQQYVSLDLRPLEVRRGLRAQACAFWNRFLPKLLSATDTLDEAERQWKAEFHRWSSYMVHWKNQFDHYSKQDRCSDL
Experiment: biochemical
Type: biochemical
Conditions: log (Ki/µM AChE); read-out: Y Measured 1 log(ki)Ache (converted)
Reply with a number, then the unit it belongs to.

[[record]]
mol = "Clc1ccc2c(NCCCCCCNCC34CC5CC(CC(C5)C3)C4)ccnc2c1"
system_name = "recombinant human AChE (Homo sapiens)"
result = "0.67 µM"


Name the recorded Ki of the compound listed here: "Clc1ccc2c(NCCCN3CCN(CCCNCC45CC6CC(CC(C6)C4)C5)CC3)ccnc2c1"
0.69 µM

Name the recorded Ki of the compound listed here: "Clc1ccc2c(NCCNCCC34CC5CC(CC(C5)C3)C4)ccnc2c1"
1.6 µM

Name the recorded Ki of the compound listed here: "Clc1ccc2c(N3CCN(CC45CC6CC(CC(C6)C4)C5)CC3)ccnc2c1"
9.4 µM

---

Form field: RF, Acetone/Water/Hydrochloric acid (conc.), mobile phase VIII (one value per entry).
Experiment: Reverse-phase thin-layer chromatographic lipophilicity (RF, RM0)
Assay type: physicochemical
Details: RP-18 silica; VIII = 45%AC/50%H2O/5%HCl
Experimental: Chromatographic determination of lipophilicity Merck, Darmstadt, Germany). The mobile phase contained organic modifier (methanol, acetone or dioxane), water and hydrochloric acid. Methanol was varied in the range […] with an increment of 10%. […] before chromatogram development. The solvent developing distance was 4.5 cm. Detection of […] All experiments were performed at ambient temperature (22±2 °C). Retention parameters were calculated as previously described. […]
Write the number on its own, no unit after it.

[[record]]
compound = "FC(F)(F)c1ccc2c(NCCNCC34CC5CC(CC(C5)C3)C4)ccnc2c1 [Compound 6]"
result_number = 0.24

[[record]]
compound = "CC(CCNCC12CC3CC(CC(C3)C1)C2)Nc1ccnc2cc(Cl)ccc12 (centres unmarked) [Compound 12]"
result_number = 0.29

[[record]]
compound = "Clc1ccc2c(NCCCCNCC34CC5CC(CC(C5)C3)C4)ccnc2c1 [Compound 3]"
result_number = 0.3

[[record]]
compound = "Clc1ccc2c(Nc3ccc(NCC45CC6CC(CC(C6)C4)C5)cc3)ccnc2c1 [Compound 17]"
result_number = 0.25

[[record]]
compound = "Clc1ccc2c(Nc3cccc4c(NCCC56CC7CC(CC(C7)C5)C6)cccc34)ccnc2c1 [Compound 19]"
result_number = 0.2


Name the recorded RF, Acetone/Water/Hydrochloric acid (conc.), mobile phase VIII of the compound listed here: Clc1ccc2c(NCCCN3CCN(CCCNCCC45CC6CC(CC(C6)C4)C5)CC3)ccnc2c1 [Compound 23]
0.31

Name the recorded RF, Acetone/Water/Hydrochloric acid (conc.), mobile phase VIII of the compound listed here: CC(CCNCCC12CC3CC(CC(C3)C1)C2)Nc1ccnc2cc(Cl)ccc12 (centres unmarked) [Compound 14]
0.21

Name the recorded RF, Acetone/Water/Hydrochloric acid (conc.), mobile phase VIII of the compound listed here: Clc1ccc2c(NCCNCCC34CC5CC(CC(C5)C3)C4)ccnc2c1 [Compound 8]
0.21

Name the recorded RF, Acetone/Water/Hydrochloric acid (conc.), mobile phase VIII of the compound listed here: Clc1ccc2c(NCCCCCCNCC34CC5CC(CC(C5)C3)C4)ccnc2c1 [Compound 4]
0.26

Name the recorded RF, Acetone/Water/Hydrochloric acid (conc.), mobile phase VIII of the compound listed here: Clc1ccc2c(NCCCCCCCCNCC34CC5CC(CC(C5)C3)C4)ccnc2c1 [Compound 5]
0.19

Name the recorded RF, Acetone/Water/Hydrochloric acid (conc.), mobile phase VIII of the compound listed here: Clc1ccc2c(NCCNCC34CC5CC(CC(C5)C3)C4)ccnc2c1 [Compound 1]
0.32

Name the recorded RF, Acetone/Water/Hydrochloric acid (conc.), mobile phase VIII of the compound listed here: Clc1ccc2c(NCCCNCC34CC5CC(CC(C5)C3)C4)ccnc2c1 [Compound 2]
0.3

---

Test: Reverse-phase thin-layer chromatographic lipophilicity (RF, RM0)
Format: physicochemical
Conditions: RP-18 silica; IX = 40%AC/55%H2O/5%HCl
Metric Name: RF, Acetone/Water/Hydrochloric acid (conc.), mobile phase IX
Write the number on its own, no unit after it.

Below, 6 compounds whose answers are already recorded.
[[record]]
compound = "Clc1ccc2c(NCCCCN(CCC34CC5CC(CC(C5)C3)C4)CCC34CC5CC(CC(C5)C3)C4)ccnc2c1"
result_number = 0

[[record]]
compound = "FC(F)(F)c1ccc2c(NCCNCC34CC5CC(CC(C5)C3)C4)ccnc2c1"
result_number = 0.11

[[record]]
compound = "CC(CCNCCC12CC3CC(CC(C3)C1)C2)Nc1ccnc2cc(Cl)ccc12 (centres unmarked)"
result_number = 0.08

[[record]]
compound = "CC(CCNCC12CC3CC(CC(C3)C1)C2)Nc1ccnc2ccccc12 (centres unmarked)"
result_number = 0.15

[[record]]
compound = "Clc1ccc2c(NCCN(CCC34CC5CC(CC(C5)C3)C4)CCC34CC5CC(CC(C5)C3)C4)ccnc2c1"
result_number = 0

[[record]]
compound = "Clc1ccc2c(NCCCN3CCN(CCCNCC45CC6CC(CC(C6)C4)C5)CC3)ccnc2c1"
result_number = 0.28


Name the recorded RF, Acetone/Water/Hydrochloric acid (conc.), mobile phase IX of the compound listed here: "Clc1ccc2c(NCCCN3CCN(CCCNCCC45CC6CC(CC(C6)C4)C5)CC3)ccnc2c1"
0.15

Name the recorded RF, Acetone/Water/Hydrochloric acid (conc.), mobile phase IX of the compound listed here: CC(CCNCCC12CC3CC(CC(C3)C1)C2)Nc1ccnc2ccccc12 (centres unmarked)
0.12

Name the recorded RF, Acetone/Water/Hydrochloric acid (conc.), mobile phase IX of the compound listed here: CC(CCNCC12CC3CC(CC(C3)C1)C2)Nc1ccnc2cc(Cl)ccc12 (centres unmarked)
0.15

Name the recorded RF, Acetone/Water/Hydrochloric acid (conc.), mobile phase IX of the compound listed here: "Clc1ccc2c(NCCNCCC34CC5CC(CC(C5)C3)C4)ccnc2c1"
0.08

Name the recorded RF, Acetone/Water/Hydrochloric acid (conc.), mobile phase IX of the compound listed here: "Clc1ccc2c(Nc3cccc4c(NCCC56CC7CC(CC(C7)C5)C6)cccc34)ccnc2c1"
0.15

Name the recorded RF, Acetone/Water/Hydrochloric acid (conc.), mobile phase IX of the compound listed here: "FC(F)(F)c1ccc2c(NCCCNCC34CC5CC(CC(C5)C3)C4)ccnc2c1"
0.11
